Target: T1, LigD (wildtype), Mycobacterium tuberculosis (M. tuberculosis, UniProt P9WNV3 1-759)
T1 construct: The His tag is TEV-cleavable; also called wildtype LigD
T1 sequence (P9WNV3 whole entry): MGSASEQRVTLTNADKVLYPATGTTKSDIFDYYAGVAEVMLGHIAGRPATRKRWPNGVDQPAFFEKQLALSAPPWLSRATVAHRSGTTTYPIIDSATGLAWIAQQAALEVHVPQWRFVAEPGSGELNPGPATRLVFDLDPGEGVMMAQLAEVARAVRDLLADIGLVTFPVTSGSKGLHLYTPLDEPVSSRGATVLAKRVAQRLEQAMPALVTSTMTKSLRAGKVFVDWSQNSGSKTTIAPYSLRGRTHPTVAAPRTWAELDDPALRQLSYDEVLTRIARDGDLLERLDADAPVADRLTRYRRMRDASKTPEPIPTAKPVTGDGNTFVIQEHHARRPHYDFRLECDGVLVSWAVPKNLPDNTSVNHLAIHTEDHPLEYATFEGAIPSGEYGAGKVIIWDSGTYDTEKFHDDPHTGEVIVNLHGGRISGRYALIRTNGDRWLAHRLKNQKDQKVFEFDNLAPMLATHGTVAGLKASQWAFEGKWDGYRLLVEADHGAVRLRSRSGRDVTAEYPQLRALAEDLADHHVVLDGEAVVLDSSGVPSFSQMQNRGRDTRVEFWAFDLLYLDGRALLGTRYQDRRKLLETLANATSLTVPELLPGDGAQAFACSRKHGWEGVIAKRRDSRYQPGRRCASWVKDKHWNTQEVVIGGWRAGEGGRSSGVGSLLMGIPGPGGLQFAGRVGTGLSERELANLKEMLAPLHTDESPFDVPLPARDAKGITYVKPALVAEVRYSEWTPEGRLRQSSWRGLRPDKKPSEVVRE
Experiment: BLI; Octet RED96, 37°C, 1000 rpm; biotinylated Ku (25 ug/ml) loaded on streptavidin biosensors; LigD, LIG or POL as analyte (12.5 ug/ml), 300 s association, 300 s dissociation; 1x kinetics buffer (0.1% BSA, 0.02% Tween-20, 0.05% sodium azide in PBS); grouped global fit
Settings: both partners purified
We begin with a simple list: items and their reported Kd.
Reply numerically in nM, unit not repeated.

{"columns": ["binder", "Kd (nM)"],
 "data": [
  ["Ku D250A (M. tuberculosis) (natural protein, biotinylated with NHS-LC-Biotin for BLI only) MRAIWTGSIAFGLVNVPVKVYSATADHDIRFHQVHAKDNGRIRYKRVCEACGEVVDYRDLARAYESGDGQMVAITDDDIASLPEERSREIEVLEFVPAADVDPMMFDRSYFLEPDSKSSKSYVLLAKTLAETDRMAIVHFTLRNKTRLAALRVKDFGKREVMMVHTLLWPDEIRDPDFPVLDQKVEIKPAELKMAGQVVDSMADDFNPDRYHDTYQEQLQELIDTKLEGGQAFTAEDQPRLLDEPEDVSALLAKLEASVKARSKANSNVPTPP", 219]
]}

// query Provide measured Kd value, entry: wildtype Ku (KuWT), Mycobacterium tuberculosis (natural protein, biotinylated at multiple sites with NHS-LC-Biotin for BLI only (sites listed in Supplementary Table S3), The His tag is TEV-cleavable; Homodimer by SEC-MALS) MRAIWTGSIAFGLVNVPVKVYSATADHDIRFHQVHAKDNGRIRYKRVCEACGEVVDYRDLARAYESGDGQMVAITDDDIASLPEERSREIEVLEFVPAADVDPMMFDRSYFLEPDSKSSKSYVLLAKTLAETDRMAIVHFTLRNKTRLAALRVKDFGKREVMMVHTLLWPDEIRDPDFPVLDQKVEIKPAELKMAGQVVDSMADDFNPDRYHDTYQEQLQELIDTKLEGGQAFTAEDQPRLLDEPEDVSDLLAKLEASVKARSKANSNVPTPP
// result 196
